The values you see were collected from ChEMBL document CHEMBL2440115.

Biological target: Casein kinase II (Homo sapiens) (UniProt P67870+P68400+P19784)
Assay: Inhibition of recombinant human CK2 using RRRDDDSDDD as substrate assessed as residual activity at 10 uM after 20 mins by beta counting analysis in presence of [gamma-labeled 32P]ATP relative to control
Assay type: protein-complex assay
property: Activity (%)

| substance.smiles | Activity / % |
| --- | --- |
| Cc1ccc(-c2cc(=O)c3cc(C)cc(C)c3o2)cc1 | 35 |
| COc1ccc(-c2oc3ccc(C)cc3c(=O)c2O)cc1OC | 64 |
| COc1cc(-c2cc(=O)c3cc(Cl)cc(C)c3o2)ccc1O | 2.3 |
| COc1ccc(-c2cc(=O)c3c(CN4CCOCC4)c(O)ccc3o2)cc1 | 79 |
| COc1cc(-c2cc(=O)c3c(CN(C)Cc4ccccc4)c(O)ccc3o2)cc(OC)c1OC | 73 |

A. COc1ccc(-c2cc(=O)c3cc(C)cc(C)c3o2)cc1OC
B. CCOc1cc(-c2cc(=O)c3cc(C)ccc3o2)ccc1O
Kindly compare A with B and tell me which has the lower Activity figure. Response format: the label of the selected entry.
B

1. COc1cc(-c2cc(=O)c3cc(Cl)cc(Cl)c3o2)ccc1O
2. Cc1ccc2oc(-c3ccccc3)c(OCC(=O)N3CCOCC3)c(=O)c2c1
Between the two listed entries 1 and 2 , which has its Activity at the higher number? Response format: the label of the selected entry.
2

1. COc1cc(-c2cc(=O)c3cc(Br)cc(Br)c3o2)cc(Cl)c1O
2. O=C(COc1c(-c2ccccc2Cl)oc2ccccc2c1=O)N1CCOCC1
3. COc1ccc(-c2oc3ccccc3c(=O)c2OC)cc1OC
4. O=c1cc(-c2cccc(Br)c2)oc2ccc(O)cc12
Order the entries by their reported Activity, beginning at the minimum. Answer with the labels in sequence, matching the requested order.
1, 4, 3, 2
(1: 1.3%, 4: 29%, 3: 66%, 2: 97%)

a. Cc1ccc(-c2oc3ccc(C)cc3c(=O)c2OCC(=O)O)cc1
b. Cc1cc(C)c2c(=O)cc(-c3ccc(N(C)C)cc3)oc2c1
Between the two listed entries a and b , which has its Activity at the higher number? Response format: the label of the selected entry.
a
(a: 83%, b: 58%)
